The reported measurements were obtained from PubChem BioAssay AID504332.

Target: Histone-lysine N-methyltransferase EHMT2 (Homo sapiens)
Experiment: qHTS Assay for Inhibitors of Histone Lysine Methyltransferase G9a; note: nearly all actives have a fitted effect of over 75% in size
Conditions: G9a H3K9 monomethylation, AlphaScreen, 2 h; series mostly up to 59 µM
The campaign covered roughly 350,000 compounds. About 31,000 (8.9%) were called active. Roughly 15% stayed inconclusive and do not appear here. Calls come from the whole dose curve; as a rule, active = well fitted inhibition curve with a large enough effect; inconclusive = small, poorly fitted or top-dose-only effect; inactive = no such curve, though single readings can be large or run the other way. The sample as a whole holds a higher share of actives than the screen did.
Your reply should match one of these outcome classes. true = active, false = inactive

Give the logged outcome of this assay for the following compound: CCOCCn1ccc2c(OCC(=O)NCc3ccc(C)cc3)cccc2c1=O
false

Give the logged outcome of this assay for the following compound: CCCN1C(=O)C(O)(CC(=O)c2ccc(CC)cc2)c2cc(Br)ccc21 (stereo unspecified)
false

Give the logged outcome of this assay for the following compound: COc1cccc(C2CC(c3cccs3)=NN2C(=O)CSC2=NCCS2)c1OC (stereo unspecified)
false

Give the logged outcome of this assay for the following compound: Cc1ccc(NC(=O)CCCn2c(=O)c3cccn3c3ccccc32)cc1Cl
false

Give the logged outcome of this assay for the following compound: Cc1cccc(C(=O)NC(=S)N(C)C2CCCCC2)c1
false

Give the logged outcome of this assay for the following compound: COc1ccc(C(C(O)C(=O)c2c[nH]c3ccccc23)N2CCN(c3ccccc3)CC2)cc1 (stereo unspecified)
true

Give the logged outcome of this assay for the following compound: O=C(CCCn1c(=O)c2cccn2c2cccnc21)NCc1ccc(F)cc1
false

Give the logged outcome of this assay for the following compound: Cc1cc(/C=C2/C(=N)N3C(=NC2=O)SN=C3S(C)(=O)=O)c(C)n1-c1ccccc1
true

Give the logged outcome of this assay for the following compound: CC(C)c1cc(C(=O)N/N=C/C(Br)=C/c2ccccc2)n[nH]1
false

Give the logged outcome of this assay for the following compound: COC(=O)C1=C(C)N=C2SC(C)C(=O)N2C1/C=C/c1ccccc1 (stereo unspecified)
false

Give the logged outcome of this assay for the following compound: Cc1ccc(CNC(=O)COc2ccc3c(c2)CCC3)cc1
false

###

Target: Histone-lysine N-methyltransferase EHMT2 (Homo sapiens) (UniProt Q96KQ7)
Sequence (Q96KQ7 913-1193 limits assumed): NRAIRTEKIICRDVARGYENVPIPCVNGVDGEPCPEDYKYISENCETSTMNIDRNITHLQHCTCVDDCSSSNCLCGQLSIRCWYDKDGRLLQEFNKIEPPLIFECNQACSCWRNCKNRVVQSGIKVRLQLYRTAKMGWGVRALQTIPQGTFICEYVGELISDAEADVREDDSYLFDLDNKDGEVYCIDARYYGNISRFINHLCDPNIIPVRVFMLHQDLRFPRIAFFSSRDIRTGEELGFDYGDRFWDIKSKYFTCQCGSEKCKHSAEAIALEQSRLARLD
Experiment: qHTS Assay for Inhibitors of Histone Lysine Methyltransferase G9a; note: nearly all actives have a fitted effect of over 75% in size; note: potency is the fitted concentration of half-maximal effect
Settings: G9a H3K9 monomethylation, AlphaScreen, 2 h; series mostly up to 59 µM
Out of some 350,000 compounds screened, about 31,000 (8.9%) were called active. Not shown: some 15% with an inconclusive outcome. Shown is part of a subset that was picked to be rich in actives.
readout-type: Potency

[[record]]
compound = "CCN1C(=O)c2ccccc2S(=O)c2ccc(C(=O)NCc3ccc(F)cc3)cc21 (stereo not drawn)"
endpoint_value = "inactive"

[[record]]
compound = "Cc1cccc(NC(=O)Cn2cc(S(=O)(=O)Cc3ccccc3Cl)c3ccccc32)c1"
endpoint_value = "inactive"

[[record]]
compound = "CCN(CC)c1ccc(C2C(C(N)=O)=C(C)Nc3nc(SCc4ccccc4)nn32)cc1 (stereo not drawn)"
endpoint_value = "inactive"

[[record]]
compound = "CCCCC(=O)Nc1ccc(C(=O)NCCCn2ccnc2)cc1"
endpoint_value = "12.6 µM (active)"

[[record]]
compound = "CC1CCC(NC(=O)C2c3ccccc3C(=O)N2Cc2ccc3c(c2)OCO3)CC1 (stereo not drawn)"
endpoint_value = "inactive"


Continue with the next compound.
Measured Potency (Histone-lysine N-methyltransferase EHMT2 (Homo sapiens) (UniProt Q96KQ7)), entry CCC(=O)Nc1cccc(-c2nc3cc(C)ccc3o2)c1 : inactive

###

Target: Histone-lysine N-methyltransferase EHMT2 (Homo sapiens) (UniProt Q96KQ7)
Experiment: qHTS Assay for Inhibitors of Histone Lysine Methyltransferase G9a; note: nearly all actives have a fitted effect of over 75% in size; for activity, negative = inhibition: % is set by controls: 0 for no effect and ±100 for the full control effect
Conditions: G9a H3K9 monomethylation, AlphaScreen, 2 h; series mostly up to 59 µM
Description: Methylated lysines, on the N-terminal tails of histone proteins serve as epigenetic markers to recruit factors that can then modify local chromatin structure to lead to functional consequences. […] Methylation of biotinylated-histone peptide is measured through specific antibody-based detection, in conjunction with streptavidin-coated donor and anti-IgG antibody-coated acceptor beads. […]
In all, about 350,000 compounds went through this assay and about 31,000 (8.9%) were called active. Roughly 15% stayed inconclusive and do not appear here. What follows is part of a selection rich in actives, with near analogues and random picks from the rest.
Could you please report measured activity, negative = inhibition for the items listed next?

Short answer for Nc1c(N(Cc2ccco2)C(=O)c2cccc(F)c2)c(=O)[nH]c(=O)n1Cc1ccccc1 : activity, negative = inhibition was -3.15% [at 12.7 µM] (inactive)

Short answer for COc1ccccc1OCc1nc2ccccc2s1 : activity, negative = inhibition was 17.1% [at 12.7 µM] (inactive)

Short answer for CN(CC(=O)NCC(c1ccccc1)N1CCCC1)S(=O)(=O)c1ccc(Cl)cc1 (stereo not drawn) : activity, negative = inhibition was -5.36% [at 12.7 µM] (inactive)

Short answer for CCn1c(SCC(=O)Nc2nccs2)nnc1-c1ccncc1 : activity, negative = inhibition was -2.99% [at 12.7 µM] (inactive)

Short answer for CC(NC(=O)c1ccccc1F)c1cccc2ccccc12 (stereo not drawn) : activity, negative = inhibition was 0% [at 2.33 µM] (inactive)

Short answer for Cn1c2cc(B(O)O)sc2c2cnn(Cc3ccccc3F)c(=O)c21 : activity, negative = inhibition was 0.244% [at 12.7 µM] (inactive)

Short answer for COc1ccc(Cl)cc1NC(=O)CN(C)C(=O)c1ccc2n[nH]nc2c1 : activity, negative = inhibition was 15.9% [at 12.7 µM] (inactive)

Short answer for Cc1ccc(CSc2nc(-c3ccccc3)c(C#N)c(=O)[nH]2)cc1 : activity, negative = inhibition was 16.7% [at 2.33 µM] (inactive)

Short answer for O=C1C=C(c2cccc(Cl)c2O)C[C@@H](c2ccc(F)cc2)C1 : activity, negative = inhibition was 4.95% [at 0.501 µM] (inactive)

Short answer for COc1ccc(Cl)cc1NC(=O)CN(C)C(=O)CNC(=O)C12CC3CC(CC(C3)C1)C2 : activity, negative = inhibition was 7.61% [at 12.7 µM] (inactive)

Short answer for CCN(CC)S(=O)(=O)c1ccc(-c2cn3ccc(C)cc3n2)cc1 : activity, negative = inhibition was 4.83% [at 0.501 µM] (inactive)

Short answer for CCC(C(=O)N1CCN(S(=O)(=O)c2sc(C(=O)O)c(C)c2C(=O)O)CC1)c1ccccc1 (stereo not drawn) : activity, negative = inhibition was -9.12% [at 2.33 µM] (inactive)

Short answer for CCc1ccccc1OCC(=O)Nc1ccc(C)c(S(=O)(=O)N2CCCCCC2)c1 : activity, negative = inhibition was 18.3% [at 12.7 µM] (inactive)

Short answer for O=C(Nc1ccccn1)C1CCN(S(=O)(=O)c2ccccc2)CC1 : activity, negative = inhibition was -10.1% [at 12.7 µM] (inactive)

Short answer for CC(C)CN(C(=O)CSc1nncn1C)C1CCS(=O)(=O)C1 (stereo not drawn) : activity, negative = inhibition was 7.97% [at 2.33 µM] (inactive)

Short answer for COCC1CCN(C(=O)C2CCC(=O)N(Cc3cccc(C(F)(F)F)c3)C2)CC1 (stereo not drawn) : activity, negative = inhibition was 15.3% [at 12.7 µM] (inactive)

Short answer for CC(C)(COC(=O)Nc1ccccc1)COC(=O)Nc1ccccc1 : activity, negative = inhibition was -24.1% [at 2.33 µM] (inactive)

Short answer for O=C(Nc1cc(-c2ccccc2)nn1-c1ccccc1F)c1ccc([N+](=O)[O-])cc1 : activity, negative = inhibition was -22.8% [at 12.7 µM] (inactive)

###

Target: Histone-lysine N-methyltransferase EHMT2 (Homo sapiens) (UniProt Q96KQ7)
Assay: qHTS Assay for Inhibitors of Histone Lysine Methyltransferase G9a; note: nearly all actives have a fitted effect of over 75% in size
Details: G9a H3K9 monomethylation, AlphaScreen, 2 h; series mostly up to 59 µM
In all, about 350,000 compounds went through this assay and about 31,000 (8.9%) were called active. Another 15% or so got no clear call; they are omitted. Calls follow the shape of the dose curve; as a rule, active = well fitted inhibition curve with a large enough effect; inconclusive = small, poorly fitted or top-dose-only effect; inactive = no such curve, though single readings can be large or run the other way. What follows is part of a selection rich in actives, with near analogues and random picks from the rest.
Your reply should match one of these outcome classes. 1 (yes) (active), 0 (no) (inactive)

Give the logged outcome of this assay for the following molecule: Cc1ccccc1C(=O)NC(=S)NC1CC1
0 (no)

Give the logged outcome of this assay for the following molecule: S=C(Nc1ccc(Br)cc1Cl)NC1CCN(Cc2ccccc2)CC1
0 (no)

Give the logged outcome of this assay for the following molecule: CCOC(=O)c1c(S(=O)(=O)NCC(=O)Nc2ccc(Cl)c(C(F)(F)F)c2)c(C)n(C)c1C
0 (no)

Give the logged outcome of this assay for the following molecule: CC(=O)c1sc(N2C(=O)c3oc4ccccc4c(=O)c3C2c2ccc(C)cc2)nc1C (stereo not drawn)
1 (yes)

Give the logged outcome of this assay for the following molecule: COc1ccc(NC(=O)N2CCCC(C(=O)Nc3ccccc3OC)C2)cc1 (stereo not drawn)
0 (no)

Give the logged outcome of this assay for the following molecule: O=C(CN1C(=O)c2cccc3cccc1c23)Nc1ccccc1
0 (no)

Give the logged outcome of this assay for the following molecule: CCN(c1ccc(Cl)cc1)S(=O)(=O)c1nnc(NC(=O)c2ccco2)s1
0 (no)

Give the logged outcome of this assay for the following molecule: CC(=O)c1c(C)[nH]c(C(=O)OCC(=O)Nc2cc(S(=O)(=O)N3CCCCC3)ccc2C)c1C
0 (no)

Give the logged outcome of this assay for the following molecule: CC(NC(=O)c1cccc(S(=O)(=O)N2CCc3ccccc3C2)c1)c1ccco1 (stereo not drawn)
0 (no)

Give the logged outcome of this assay for the following molecule: CCN1C(=O)c2cccc3c(S(=O)(=O)Nc4ccccc4O)ccc1c23
1 (yes)

Give the logged outcome of this assay for the following molecule: Cc1ccc(O)c(NC(=O)c2cc(-c3ccco3)on2)c1
0 (no)

Give the logged outcome of this assay for the following molecule: Cc1c(C2=CCN(S(=O)(=O)c3ccc(Cl)cc3)CC2)c2ccccc2n1C
1 (yes)

Give the logged outcome of this assay for the following molecule: Cc1cccc(NC(=O)CN2C(=O)c3ccccc3C2=O)c1C
0 (no)
